- measurement notes: Stability of radiotracers in human serum (radio-HPLC)
- Format: in vitro ADME
- cond: 37 °C, 120 min, mean ± SD, read-out: Stability: intact radiotracer after 120 min of incubation in human serum
Record form. Attribute: remaining at 2 h. Fill in for each entry.
Write the answer as a number in %, unit excluded.

Need remaining at 2 h, item CCCC[C@H](NC(=O)CNC(=O)CNC(=O)CCOCCOCCC(=O)NCCCN(CCCNC(=O)CCOCCOCCC(=O)NCCCC[C@@H]1NC(=O)[C@@H](Cc2ccccc2)NC(=O)[C@H](CC(=O)O)NC(=O)CNC(=O)[C@H](CCCNC(=N)N)NC1=O)CC(=O)N[C@@H](CCCCNC(=O)CCC[N+](C)(C)Cc1ccc([Si](F)(C(C)(C)C)C(C)(C)C)cc1)C(N)=O)C(=O)N[C@H]1CC(=O)NCCCC[C@@H](C(N)=O)NC(=O)[C@H](Cc2c[nH]c3ccccc23)NC(=O)[C@H](CCCNC(=N)N)NC(=O)[C@@H](Cc2ccccc2)NC(=O)[C@H](Cc2c[nH]cn2)NC1=O [[^18F]1]
87

Need remaining at 2 h, item CCCC[C@H](NC(=O)CNC(=O)CNC(=O)COCC(=O)NCCCN(CCCNC(=O)COCC(=O)NCCCC[C@@H]1NC(=O)[C@@H](Cc2ccccc2)NC(=O)[C@H](CC(=O)O)NC(=O)CNC(=O)[C@H](CCCNC(=N)N)NC1=O)CC(=O)N[C@@H](CCCCNC(=O)CCC[N+](C)(C)Cc1ccc([Si](F)(C(C)(C)C)C(C)(C)C)cc1)C(N)=O)C(=O)N[C@H]1CC(=O)NCCCC[C@@H](C(N)=O)NC(=O)[C@H](Cc2c[nH]c3ccccc23)NC(=O)[C@H](CCCNC(=N)N)NC(=O)[C@@H](Cc2ccccc2)NC(=O)[C@H](Cc2c[nH]cn2)NC1=O [[^18F]5]
83.2

----------
- measurement notes: logD(7.4) determination (n-octanol / phosphate buffer distribution)
- Assay type: physicochemical
- cond: n-octanol / 0.05 M phosphate buffer pH 7.4; mean ± SD
Record form. Attribute: logD. Fill in for each entry.
Answer field: number only, no words.

Need logD, item CCCC[C@H](NC(=O)CNC(=O)CNC(=O)CCOCCOCCC(=O)NCCCN(CCCNC(=O)CCOCCOCCC(=O)NCCCC[C@@H]1NC(=O)[C@@H](Cc2ccccc2)NC(=O)[C@H](CC(=O)O)NC(=O)CNC(=O)[C@H](CCCNC(=N)N)NC1=O)CC(=O)N[C@@H](CCCCNC(=O)CCC[N+](C)(C)Cc1ccc([Si](F)(C(C)(C)C)C(C)(C)C)cc1)C(N)=O)C(=O)N[C@H]1CC(=O)NCCCC[C@@H](C(N)=O)NC(=O)[C@H](Cc2c[nH]c3ccccc23)NC(=O)[C@H](CCCNC(=N)N)NC(=O)[C@@H](Cc2ccccc2)NC(=O)[C@H](Cc2c[nH]cn2)NC1=O [[^18F]1]
-1.08

Need logD, item CCCC[C@H](NC(=O)CNC(=O)CNC(=O)COCC(=O)NCCCN(CCCNC(=O)COCC(=O)NCCCC[C@@H]1NC(=O)[C@@H](Cc2ccccc2)NC(=O)[C@H](CC(=O)O)NC(=O)CNC(=O)[C@H](CCCNC(=N)N)NC1=O)CC(=O)N[C@@H](CCCCNC(=O)CCC[N+](C)(C)Cc1ccc([Si](F)(C(C)(C)C)C(C)(C)C)cc1)C(N)=O)C(=O)N[C@H]1CC(=O)NCCCC[C@@H](C(N)=O)NC(=O)[C@H](Cc2c[nH]c3ccccc23)NC(=O)[C@H](CCCNC(=N)N)NC(=O)[C@@H](Cc2ccccc2)NC(=O)[C@H](Cc2c[nH]cn2)NC1=O [[^18F]5]
-1.21

Reference source: paper PMC8228600
